Target: Human MTAP (Homo sapiens)
Construct: six-histidine tag (His6) (N); made in house; host or cells: E. coli BL21 DE3
Sequence (Q13126 whole entry): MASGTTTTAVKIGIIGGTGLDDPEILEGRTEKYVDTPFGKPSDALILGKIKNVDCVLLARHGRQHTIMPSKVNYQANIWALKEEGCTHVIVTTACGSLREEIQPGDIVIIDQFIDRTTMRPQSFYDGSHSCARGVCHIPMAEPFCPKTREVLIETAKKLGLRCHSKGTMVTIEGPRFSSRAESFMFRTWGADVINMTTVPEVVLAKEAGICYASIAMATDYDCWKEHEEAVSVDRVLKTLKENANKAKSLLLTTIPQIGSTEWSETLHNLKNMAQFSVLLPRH
Assay: MTAP substrate assay, coupled spectrophotometric (adenine, xanthine oxidase)
Assay type: biochemical
Settings: compound 10 uM, 2 nM MTAP, relative to MTA at 10 uM
Label true (1) when MT-A—10: initial velocity as a percentage of the initial velocity with MTA as substrate < 9%; otherwise false (0).

| compound | cat |
| --- | --- |
| Cn1c(SC[C@H]2O[C@@H](n3cnc4c(N)ncnc43)[C@H](O)[C@@H]2O)nc2ccccc21 [2(G)(113)] | false (0) |
| CC(C)(C)c1ccc(SC[C@H]2O[C@@H](n3cnc4c(N)ncnc43)[C@H](O)[C@@H]2O)cc1 [2(G)(21)] | false (0) |
| Cn1c(O)nnc1SC[C@H]1O[C@@H](n2cnc3c(N)ncnc32)[C@H](O)[C@@H]1O [2(G)(31)] | false (0) |
| Nc1ncnc2c1ncn2[C@@H]1O[C@H](CSc2c(Cl)cccc2Cl)[C@@H](O)[C@H]1O [2(G)(102)] | true (1) |

*Q* Please determine if Nc1ncnc2c1ncn2[C@@H]1O[C@H](CSc2c[nH]c3ccccc23)[C@@H](O)[C@H]1O [2(G)(106)] is below 9% in terms of MT-A—10: initial velocity as a percentage of the initial velocity with MTA as substrate.
*A* true (1)

*Q* Please determine if Nc1ncnc2c1ncn2[C@@H]1O[C@H](CSCc2ccccc2Cl)[C@@H](O)[C@H]1O [2(G)(73)] is below 9% in terms of MT-A—10: initial velocity as a percentage of the initial velocity with MTA as substrate.
*A* false (0)

*Q* Please determine if CCCC(CCO)SC[C@H]1O[C@@H](n2cnc3c(N)ncnc32)[C@H](O)[C@@H]1O (some centres unmarked) [2(G)(77)] is below 9% in terms of MT-A—10: initial velocity as a percentage of the initial velocity with MTA as substrate.
*A* true (1)
